Tested on: MS2 coat protein
protocol notes: apparent KD of MS2 coat protein; designed switch direction (-1 OFF switch, 1 ON switch): 1; higher = weaker reporter binding
setup conditions: input ligand: FMN 200 uM

| residue sequence | apparent KD of MS2 coat protein |
| --- | --- |
| UAUUUAAUCGUAGGAUAUAGAAUGAAAUUUGUACUAGAAGGACGUUACAUGAGGAUCACCCAUGUGGUAAGUGGGACAUAGAUU [JR_SSNG1_Sub035] (Eterna round: R96, puzzle: Same State NG 1) | 235 nM |
| UUGUUUGGUAAAAUACAUGAGGAUCACCCAUGUUAUGGUGCAGAGGAUAUGCAUGUUUGAUUGAAGCAGAAGGCUGUAAGUUGU [JR_SSNG3_Sub036] (Eterna round: R96, puzzle: Same State NG 3) | 35.7 nM |
| GGAGAGAAGUGAGGAUAUGCAUGGAAGACACAUGAGGAUCACCCAUGUGGGAGGGAGACCGGGAGGUAGAAGGCACUGGGAAGA [AK SSNG2-V2-25.1] (Eterna round: R96, puzzle: Same State NG 2) | 425 nM |
| AUUAUCUAUGCAGGAUAUGAUUAACAUGAGGAUCACCCAUGUGGUGUUGUGAGUAAGGAGAGUGAUCAGAAGGGCAUUUUUUUU [JMF's solution 65] (Eterna round: R96, puzzle: Same State NG 2) | 875 nM |
| GCGAAAUGAUGAAACAUGAGGAUCACCCAUGUAACGAGAGAUGAGGAUAUCGGAAAGGGAGGAACCGAGAAGGCAUGGUCACGC [AK SSNG3-V2-26.1] (Eterna round: R96, puzzle: Same State NG 3) | 34.5 nM |

---

System: K4 kissing-loop RNA reporter;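 note: bound reporter read as fluorescence of individual clusters on recovered sequencing chips by microscopy, with normalized cluster intensities fitted with a binding model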
protocol notes: apparent KD of K4 kissing-loop reporter; higher = weaker reporter binding
setup conditions: Eterna round: R107; input ligand: none

| residue sequence | tested on | apparent KD of K4 kissing-loop reporter, nM |
| --- | --- | --- |
| UGUCAUUGGUCUGAUACCAGAAGAAAUCUGGAGUGAUGUUCCAAGUCGACAAAAUGUCGCUUCCCUUGGCAGCAGACCGAUGACU [TheoBS 23 #SwitchBubble 13 #StaticStem] | K4 kissing-loop RNA reporter | 377 |
| GGUGGCUUACAAAGCUCAGUGAUGUUGAGCCGAGGACCGGUACGGCCGCCACUCGUUUGCCAUUCACUACAGUUACAAGCACUAG [theeternabot_exclusion_KL_Trp_A_2] | K4 kissing-loop RNA reporter | 279 |
| AUACAUGUAAAUCUAUAUGUAUAAUGGAGCCGAGGACCGGUACGGCCGCCACUCGGAGUAAUCGGAGUGAUGUUCCGAAAUGUAC [KL-SSTryp-A sub13] | K4 kissing-loop RNA reporter | 104 |
| AGACUACCACACUGUCAAUAGACAGUGAACUCGGAUAUGCUGAUAAGCAGAAGGAGUGAUGUUCCUAGGUAGUCAAUAAAAUAAU [FmnAX 13 C32] | K4 kissing-loop RNA reporter | 376 |
| AUGGUAUUGCGAGGAUAUCCUUCCCACGUCGAAGUACCGUGCUUGAUGGAGUGAUGUUCGAUCAGAGGAGAAGGCGCGGUGUUAU [Same State FMN B GF22] | K4 kissing-loop RNA reporter | 572 |
| ACUAUCAUUACGCAUGGAGUGAUGUUUCAGCGAGGACCGGUACGGCCGCCACUCGUUACGUGGUUAGAGCCAAUGUUCGAGAAGC [theeternabot_exclusion_KL_Trp_A_39] | K4 kissing-loop RNA reporter | 927 |
